Values from ChEMBL document CHEMBL5532752

Known pIC50 of a selection of compounds
biological target: Histone deacetylase 2 (Homo sapiens); assay: Inhibition of human recombinant HDAC2 using aminoluciferin-conjugated histone 4 derived acetylated lysine peptide as substrate incubated for 30 mins by bio-luminogenic assay
Sequence (Q92769 whole entry): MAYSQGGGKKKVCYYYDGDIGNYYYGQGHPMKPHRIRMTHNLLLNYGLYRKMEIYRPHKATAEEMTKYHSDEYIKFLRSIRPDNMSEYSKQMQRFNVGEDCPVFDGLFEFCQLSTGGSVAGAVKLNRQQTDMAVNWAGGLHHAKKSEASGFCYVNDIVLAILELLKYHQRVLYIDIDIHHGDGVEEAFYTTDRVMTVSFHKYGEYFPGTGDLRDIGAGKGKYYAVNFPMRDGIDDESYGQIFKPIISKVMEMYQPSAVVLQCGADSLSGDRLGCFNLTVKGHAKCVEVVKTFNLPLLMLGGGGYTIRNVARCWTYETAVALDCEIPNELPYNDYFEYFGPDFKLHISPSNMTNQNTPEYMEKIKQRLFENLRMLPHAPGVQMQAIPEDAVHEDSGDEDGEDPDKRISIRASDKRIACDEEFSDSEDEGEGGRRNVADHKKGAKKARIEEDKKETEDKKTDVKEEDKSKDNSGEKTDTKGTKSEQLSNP
As a rule, pIC50 stands for the negative log10 of the concentration, concentration in M.

CC1=C(NCCCCNC(=O)CS)C(=O)c2ccccc2C1=O
4.60

Next, consider the following compound.
pIC50 lookup needed for CC1=C(NCc2ccc(C(=O)Nc3ccccc3N)cc2)C(=O)c2ccccc2C1=O , thanks.
5.68

====

Known pIC50 of a selection of compounds
biological target: Protein deacetylase HDAC6 (Homo sapiens, UniProt Q9UBN7); test: Inhibition of human recombinant HDAC6 using aminoluciferin-conjugated histone 4 derived acetylated lysine peptide as substrate incubated for 30 mins by bio-luminogenic assay
Sequence (Q9UBN7 whole entry): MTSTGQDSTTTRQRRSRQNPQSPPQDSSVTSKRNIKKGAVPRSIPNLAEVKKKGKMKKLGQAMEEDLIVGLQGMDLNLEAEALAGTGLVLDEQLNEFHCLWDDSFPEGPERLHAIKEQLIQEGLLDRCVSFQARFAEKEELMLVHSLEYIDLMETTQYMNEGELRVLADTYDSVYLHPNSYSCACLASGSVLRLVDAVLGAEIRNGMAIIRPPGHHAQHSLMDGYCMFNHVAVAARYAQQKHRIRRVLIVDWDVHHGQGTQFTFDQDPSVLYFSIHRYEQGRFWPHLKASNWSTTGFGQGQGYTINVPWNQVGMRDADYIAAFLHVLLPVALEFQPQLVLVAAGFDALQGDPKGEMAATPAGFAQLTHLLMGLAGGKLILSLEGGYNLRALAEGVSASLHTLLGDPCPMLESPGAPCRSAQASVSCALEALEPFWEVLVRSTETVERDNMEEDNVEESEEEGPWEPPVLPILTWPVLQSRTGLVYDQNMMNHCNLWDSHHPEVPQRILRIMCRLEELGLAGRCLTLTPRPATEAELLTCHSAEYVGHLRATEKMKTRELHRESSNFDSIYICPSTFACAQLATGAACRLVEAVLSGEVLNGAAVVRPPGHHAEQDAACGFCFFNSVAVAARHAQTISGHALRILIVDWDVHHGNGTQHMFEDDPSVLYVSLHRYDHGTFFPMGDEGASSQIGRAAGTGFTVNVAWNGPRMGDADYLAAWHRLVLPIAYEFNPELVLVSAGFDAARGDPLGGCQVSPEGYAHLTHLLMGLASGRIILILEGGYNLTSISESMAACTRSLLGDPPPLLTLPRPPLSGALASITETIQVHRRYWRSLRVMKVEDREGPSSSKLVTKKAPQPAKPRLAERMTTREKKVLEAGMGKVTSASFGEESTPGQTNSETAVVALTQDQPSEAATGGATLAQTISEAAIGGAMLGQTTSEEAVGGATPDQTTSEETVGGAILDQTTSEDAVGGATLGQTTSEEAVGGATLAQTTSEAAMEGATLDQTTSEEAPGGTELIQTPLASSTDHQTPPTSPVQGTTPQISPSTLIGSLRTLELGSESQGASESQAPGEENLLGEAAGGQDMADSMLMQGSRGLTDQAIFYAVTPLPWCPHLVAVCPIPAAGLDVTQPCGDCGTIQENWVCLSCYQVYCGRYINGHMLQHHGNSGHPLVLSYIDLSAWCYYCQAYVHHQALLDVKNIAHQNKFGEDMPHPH
As a rule, pIC50 stands for the negative log10 of the concentration, concentration in M.

CC1=C(NCCCCNC(=O)CS)C(=O)c2ccccc2C1=O
4.52

Next, consider the following compound.
pIC50 lookup needed for CC1=C(NCc2ccc(C(=O)Nc3ccccc3N)cc2)C(=O)c2ccccc2C1=O , thanks.
5.42

====

experiment: Cytotoxicity against human HepG2 cells assessed as reduction in cell viability incubated for 24 hrs by MTT assay; assay type: toxicity, cell-based
attribute_measured: IC50 at 24 h (µM)
Write it as a number; the unit µM goes unstated.

IC50 at 24 h lookup needed for CC1=C(NCCCCNC(=O)CS)C(=O)c2ccccc2C1=O , thanks.
25.5
